composite z-score by entry:
target: Calmodulin-1 (Homo sapiens) (UniProt P0DP23); test: CALM1 binders on microarrays, EGTA buffer, profiling panel, biochemical, small-molecule microarray, Cy5-labelled CALM1 (AID 1111); settings: Cy5-CALM1 binding fluorescence, higher = more signal;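 further: labelled calmodulin applied in Tris saline Tween buffer holding calcium plus EGTA and DTT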
Answer with a bare number; do not write a unit.

molecule	composite z-score
CCOC(=O)[C@H]1C/C=C/C[C@H](C(=O)OCC)C(=O)O[C@H]2[C@@H](OC)O[C@H](CO)[C@@H](OC(=O)Nc3ccc(C#N)cc3)[C@@H]2OC1=O	0.917
O=C1OCC=C[C@H]2OC34C=CCN(CCN5CCOCC5)C(=O)[C@H]3N(CCCO)C(=O)[C@@H]4[C@@H]12 (stereo partly specified)	-0.0514
COC(=O)C(CC#Cc1ccc2c(c1)[C@]1(C(=O)N2)[C@H](C(=O)O)[C@H]2C(=O)O[C@H](c3ccccc3)[C@H](c3ccccc3)N2[C@@H]1c1ccc(O)cc1)C(=O)OC	-0.345
COc1ccc(C(=O)Nc2cccc(CN3C(=O)[C@]4(O[C@H](CCO)[C@@H]([Si](C)(C)c5ccc(OC)cc5)[C@@H]4C)c4ccccc43)c2)cc1	0.123
CC1CC/C=C\[C@H]2OC34C=CCN(Cn5nnc6ccccc65)C(=O)[C@H]3N(C(CO)C(C)C)C(=O)[C@@H]4C2C(=O)O1 (stereo partly specified)	-0.195

q: For `CCCCc1cn(C[C@H](Cc2ccccc2)NC(=O)N[C@H](CO)CCc2oc(C(C)=O)c(C(=O)OC)c2C(=O)OC)nn1` , what is its reported composite z-score?
a: 0.451

====

Consider the following compounds and their measured composite z-score readings.
test system: Human papillomavirus type 1a E7 protein (residues 1-88); experiment: HPV1a E7 small-molecule binders, primary screen, biochemical, small-molecule microarray, residues 1-88, 635 nm (AID 1129); details: small-molecule microarray binding, fluorescence 635 nm; higher = more signal

compound	composite z-score
[N-]=[N+]=Nc1ccccc1C[C@]1(C(N)=O)N=C(c2ccc(OCCCO)cc2)O[C@H]1c1ccccc1	1.2
COCCCNC(=O)[C@@]1(Cc2ccccc2N=[N+]=[N-])N=C(c2ccc(OCCCO)cc2)O[C@H]1c1ccccc1N=[N+]=[N-]	1.22
COCCOC(=O)N1C(=O)[C@@]2(c3cc(C#CCCO)ccc31)[C@H](c1ccc(OCCO)cc1)N1[C@H](c3ccccc3)[C@H](c3ccccc3)OC(=O)[C@H]1[C@@H]2C(=O)N1CCN(c2ncccn2)CC1	1.18
C=CC[C@@]1(C(=O)N(C)C)N=C(c2ccc(OCCCO)cc2)O[C@@H]1c1ccccc1N=[N+]=[N-]	1.22
C=C(COC)/C(=C/C[C@@H](OC(C)=O)c1ccc(OCCO)cc1)c1cc(C(=O)OC)ccc1OC	1.21
COc1ccc(CCNC(=O)[C@@]2(C)c3ccccc3C(=O)N(Cc3cc(F)cc(C(F)(F)F)c3)[C@H]2c2ccc(CO)cc2)cc1	0.682
CN1C(=O)C2C=CC(C(O)c3ccccc3)N(Nc3ccccc3)C2C1=O (centres undefined)	0.717
COCCOC(=O)N1C(=O)[C@@]2(c3ccccc31)[C@H](c1ccccc1OCCO)N1[C@H](c3ccccc3)[C@H](c3ccccc3)OC(=O)[C@H]1[C@@H]2C(=O)Nc1nc2ccccc2s1	1.19
C=CCC(OC(C)=O)[C@@H]1[C@@H](N(Cc2ccc(-c3cccc(C(F)(F)F)c3)o2)C(=O)c2ccc(-c3ccccc3)cc2)c2cc(OCCCO)ccc2N1C(=O)c1ccc(-c2ccccc2)cc1 (some centres undefined)	-0.714
C=C(CCCC)C(=O)CC[C@@H](OC(=O)c1cccnc1)c1ccc(CO)o1	1

Below: the item to evaluate.
q: Looking for the measured composite z-score of O=C1OCC=C[C@H]2OC34C=CCN(c5ccc6ccccc6c5)C(=O)[C@H]3N(CCCCCCO)C(=O)[C@@H]4[C@@H]12 (some centres undefined) , can you help?
a: -0.593

====

assay: CREB reporter modulators without forskolin, primary screen, cell-based, PC12, CRE-LacZ reporter, unstimulated (AID 1145); conditions: no forskolin, luminescence, 4.5 h, higher = more signal, called active from +8 up or from −8 down
Catalogue of z-score readings, one per entry.
# output: bare number, no unit

q: Record request: z-score value, item `CC(=O)NCCCC[C@@H]1NC(=O)[C@@H]2C[C@H](C(=O)NCCCCN(C)C)[C@H](c3cccc(OCCO)c3)N2C1=O`
a: 0.0043

====

test: basal HepG2 mitochondrial membrane potential changes, profiling panel, cell-based, JC-1 fluorescence, 24 h, 100 nL compound (AID 1167); conditions: higher = more signal; further: test concentration not given here
Assign Criterion met whenever z-score does not fall below 0.8; assign Criterion not met whenever it does.

Worked examples follow.
test_smiles	label
[N-]=[N+]=Nc1ccccc1C[C@@]1(C(=O)NCCN2CCOCC2)N=C(c2ccc(OCCCO)cc2)O[C@@H]1c1ccccc1	Criterion met
COC(=O)c1c(CC[C@@H](CO)NC(=O)N[C@H](Cn2cc(Cc3ccccc3)nn2)C(C)C)oc(C(C)=O)c1C(=O)OC	Criterion not met

q: Hello, I need to know if `Cc1ccc(S[C@]2(C(=O)NC3CC3)CC(=O)N(C3Cc4ccccc4C3)[C@@H]2c2ccc(CO)cc2)cc1` has measured z-score not below 0.8. Thanks!
a: Criterion met

q: What about this molecule? `C=CCNC(=O)[C@@H]1[C@H]2C(=O)O[C@H](c3ccccc3)[C@H](c3ccccc3)N2[C@H](c2ccccc2OCCO)[C@@]12C(=O)N(C(=O)OCCOC)c1ccc(C#CCNC(N)=O)cc12`
a: Criterion not met

q: Subsequent entry: `O=C1c2ccccc2[C@@]2(Cc3ccccc3N(CC(F)(F)F)C2=O)[C@H](c2ccc(CO)cc2)N1Cc1ccccc1Cl`
a: Criterion not met

q: Then this molecule: `O=C1C[C@]2(c3ccc([N+](=O)[O-])cc3)C(=O)N(CCN3CCOCC3)c3cc(CO)ccc3[C@H]2N1C1CCCCC1`
a: Criterion not met

q: Param item: `O=C1O[C@H](c2ccccc2)[C@H](c2ccccc2)N2[C@H]1[C@@H](C(=O)O)[C@]1(C(=O)Nc3ccc(C#CC4=CCCCC4)cc31)[C@H]2c1ccccc1OCCO`
a: Criterion not met

q: Field entry: `CCCN1C(=O)[C@]2(CCS(=O)(=O)c3ccccc3)N=C(c3ccc(OCCCO)cc3)O[C@@H]2c2ccccc21`
a: Criterion not met

q: Do the same for `COC(=O)[C@@]1(Cc2ccc(F)cc2)[C@@H]2[C@@H](CC(=O)[C@H]2CC(=O)C(=O)N(C)C)CN1C(=O)c1ccccc1` please
a: Criterion met

q: Then `COC(=O)C(CC#Cc1ccc2c(c1)[C@]1(C(=O)N2)[C@H](C(=O)O)[C@H]2C(=O)O[C@H](c3ccccc3)[C@H](c3ccccc3)N2[C@@H]1c1ccc(O)cc1)C(=O)OC` ?
a: Criterion not met

q: Again, but for `COCCOC(=O)N1C(=O)[C@@]2(c3cc(C#CCCO)ccc31)[C@H](c1ccc(OCCO)cc1)N1[C@H](c3ccccc3)[C@H](c3ccccc3)OC(=O)[C@H]1[C@@H]2C(=O)N1CCN(c2ncccn2)CC1`
a: Criterion not met

q: Try `Cc1ccc(S[C@]2(C(=O)NCC(C)C)CC(=O)N(Cc3cc(C(F)(F)F)cc(C(F)(F)F)c3)[C@@H]2c2ccc(CO)cc2I)cc1` next.
a: Criterion not met

====

The following molecules are shown together with reported z-score values.
test: E. coli DRC41 culture turbidity changes, primary screen, E. coli filamentation inducer project, strain DRC41, OD650, 48 h (AID 1152);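 further: E. coli MC1000 strain DRC41 lacking acrAB efflux pump and sulA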; settings: E. coli DRC41 (acrAB sulA), higher = more signal, called active from +8 up or from −8 down
Please give the numeric answer without any surrounding text.

q: Find the recorded z-score belonging to Cc1ccc(C(C)CC(O)C2C=CC3C(=O)N(c4ccccc4)C(=O)C3N2Nc2ccc([N+](=O)[O-])cc2)o1 (centres undefined) and report it.
a: -0.571

q: Note, next up: `COC(=O)c1c(CC[C@@H](CO)NC(=O)N2CCC[C@H]2Cn2cc(-c3ccccn3)nn2)oc(C(C)=O)c1C(=O)OC`
a: 1.04

q: Can you check `COc1ccc([Si](C)(C)[C@H]2[C@H](CCO)O[C@@]3(C(=O)N(Cc4ccc(N5C(=O)COc6ccccc65)cc4)c4ccccc43)[C@@H]2C)cc1` next?
a: -0.609

q: Moving on to CC(C)c1ccc(NN2C(C(O)C(c3ccccc3)c3ccccc3)C=CC3C(=O)N(c4ccccc4)C(=O)C32)cc1 (centres undefined)
a: -1.98

====

assay: fission yeast growth modulation, primary screen, strain 972, OD600, 24 h, no modulator (AID 1090);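 further: basal condition with compound alone and no growth modifier present; test concentration not given here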; conditions: S. pombe 972 growth, higher = more signal, called active from +8 up or from −8 down
The reader will find reported z-score values listed item by item below.
Keep it simple and answer with nothing but the number.

Illustrative cases are given below, each with its answer.
molecule	z-score
COc1ccc([C@H]2C[C@H]3C(Br)=C[C@@H]2C(=O)[C@]32CO2)cc1	-3.66
C=CCOC(=O)[C@@H]1[C@H]2C(=O)O[C@H](c3ccccc3)[C@H](c3ccccc3)N2[C@H](c2ccc(OCCOC(=O)[C@@H]3C[C@@H]4C(=O)N[C@@H](Cc5ccccc5)C(=O)N4[C@@H]3c3ccc(O)cc3)cc2)[C@@]12C(=O)Nc1ccc(I)cc12	1.18
C=CCNC(=O)[C@H]1[C@@H]2C(=O)O[C@@H](c3ccccc3)[C@@H](c3ccccc3)N2[C@@H](c2ccc(O)cc2)[C@]12C(=O)N(C(=O)OCCOC)c1ccc(C#CCNC(N)=O)cc12	0.311
[N-]=[N+]=Nc1ccccc1[C@H]1OC(c2ccc(OCCCO)cc2)=N[C@@]1(Cc1ccccc1)C(=O)O	-0.329
COc1ccc(CCN2C(=O)[C@@]3(c4ccc([N+](=O)[O-])cc4)CC(=O)N(C4CCCCC4)[C@@H]3c3ccc(CO)cc32)cc1	0.701

Consider the additional molecule presented here.
q: Fill in: z-score of `[N-]=[N+]=NCc1ccccc1C[C@]1(C(=O)N2CCOCC2)N=C(c2ccc(OCCCO)cc2)O[C@H]1c1ccccc1N=[N+]=[N-]` is ___
a: -2.26

Sourced from PubChem BioAssay
